- tested.target: T1, C5 peptide 45-111 fused to GST-tag (human, UniProt P01031 45-111)
- T1 construct: not shown: GST-tag (glutathione S-transferase); vector and linker not restated
- T1 sequence (P01031 45-111): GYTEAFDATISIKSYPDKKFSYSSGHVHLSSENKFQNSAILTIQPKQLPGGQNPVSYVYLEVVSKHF
- procedure.text: summary drawing of the binding reactions to C5 beta-chain fragments
recorded.endpoint: binding result

CFA0538 (antibody, V domains shown, Chimeric, rabbit V regions; also called CFA0538-F760G4) VH: QSVEESGGRLVTPGTPLTLTCTASGFSLSSYYMNWVRQAPGKGLEWIGMIYGSGATYYASWAKGRFTISKTSSTTVDLKMTSLTTEDTATYFCARQIYSGDNNDNFWGPGTLVTVSS VL: AYDMTQTPASVEVAVGGTVTINCQASESISNWLAWYQQKPGQRPKLLIYRASTLASGVSSRFKGSGSGTQFTLTISGVECDDAATYYCQQDYSSSNVDNTFGGGTTVVVE | no binding
CFA0307 (antibody, V domains shown, Chimeric, rabbit V regions; also called CFA0307-F760G4) VH: QSLEESGGGLVKPGASLTLTCKASGIDFSNFYYICWVRQAPGKGLDLIACIYTVSGYTYYASWAKGRLTISKTSSTTVTLQMTSLTAADTATYFCARDLHAGITNLWGPGTLVTVSS VL: AIEMTQTPFSVSAAVGGTVTIKCQASQNIYSNLAWYQQKPGQRPKLLIYGASNLESGVPSRFKGSGSGTEYTLTISDLECADAATYYCLQGYSYSNVDDAFGGGTEVVVK | no binding
CFA0366 (antibody, V domains shown, Chimeric, rabbit V regions; also called CFA0366-F760G4) VH: QSLEESGGDLVKPGASLSLTCTAAGLDFSSSYYMCWVRQAPGKGLEWIACIYAGSSGIIYYANWAKGRFTISRPSSTTVTLQMTSLTAADTATYFCATYPTYGDGGHAFNLWGPGTLVTVSS VL: AQVLTQTPSSVSAAVGGTVTINCQSSQSVYSSDYLSWYQQKPGQPPKLLIYEASKLASGVPPRFSGSGSGTQFTLTISGVQCDDAATYYCQGTYYSSGWYFAFGGGTEVVVK | no binding
